Reference source for all entries: the supplement of paper PMC10883282

Tested on: G401
Assay: relative viability vs DMSO control (72 h) (fraction); higher = more viable cells
Settings: 0.00457 µM
Where a name gives a salt, the structure may show the parent alone.
experimental-readout: relative viability
Answer with the value's number alone.

Return reported relative viability; argument: CC(C)(C)c1cc(NC(=O)Nc2ccc(-c3cn4c(n3)sc3cc(OCCN5CCOCC5)ccc34)cc2)no1 [Quizartinib] 1.06

Same question, COc1cccc2c1C(=O)c1c(O)c3c(c(O)c1C2=O)C[C@@](O)(C(=O)CO)C[C@@H]3O[C@H]1C[C@H](N)[C@H](O)[C@H](C)O1 [Doxorubicin Hydrochloride] this time 0.937

Same question, C=CC(=O)Nc1cccc(Oc2nc(Nc3ccc(N4CCN(C)CC4)cc3)nc3ccsc23)c1 [Olmutinib] this time 0.984

Same question, Cc1nc(NC(=O)N2CCC[C@H]2C(N)=O)sc1-c1ccnc(C(C)(C)C(F)(F)F)c1 [Alpelisib] this time 0.946

Same question, Cc1cnc(Nc2ccc(OCCN3CCCC3)cc2)nc1Nc1cccc(S(=O)(=O)NC(C)(C)C)c1 [Fedratinib] this time 1.03

Same question, CO[C@H]1C[C@@H]2CC[C@@H](C)[C@@](O)(O2)C(=O)C(=O)N2CCCC[C@H]2C(=O)O[C@H]([C@H](C)C[C@@H]2CC[C@@H](OP(C)(C)=O)[C@H](OC)C2)CC(=O)[C@H](C)/C=C(\C)[C@@H](O)[C@@H](OC)C(=O)[C@H](C)C[C@H](C)/C=C/C=C/C=C/1C [Ridaforolimus] this time 0.793

Same question, CN1CCN(c2ccc3nc(-c4c(N)c5c(F)cccc5[nH]c4=O)[nH]c3c2)CC1 [Dovitinib] this time 1.02

Same question, C[C@@H](c1ccc2nccn2c1)n1nnc2ncc(-c3cnn(C)c3)nc21 [Volitinib] this time 1.04

----------
Test system: SK-LMS-1
Assay: relative viability vs DMSO control (72 h) (fraction); higher = more viable cells
Settings: 3.333 µM
experimental-readout: relative viability
Answer with the value's number alone.

Return reported relative viability; argument: `Cc1ccc(NC(=O)c2ccc(CN3CCN(C)CC3)cc2)cc1Nc1nc(-c2cccnc2)cs1` 0.605

Same question, `CNC(=O)c1ccc(-c2cnc3ncc(Cc4ccc5ncccc5c4)n3n2)cc1F` this time 0.496

Same question, `COc1cc2/c(=N/c3ccc(Br)cc3F)nc[nH]c2cc1OCC1CCN(C)CC1` this time 0.484

Same question, `Cc1nc(NC(=O)N2CCC[C@H]2C(N)=O)sc1-c1ccnc(C(C)(C)C(F)(F)F)c1` this time 0.666

Same question, `Cc1cc(C)c(/C=C2\C(=O)Nc3ccccc32)[nH]1` this time 0.871

Same question, `CCCS(=O)(=O)Nc1ccc(F)c(C(=O)c2c[nH]c3ncc(-c4ccc(Cl)cc4)cc23)c1F` this time 0.667

Same question, `CC(C)(C)c1cc(NC(=O)Nc2ccc(-c3cn4c(n3)sc3cc(OCCN5CCOCC5)ccc34)cc2)no1` this time 0.832

Same question, `COc1cc2nccc(Oc3ccc(NC(=O)Nc4cc(C)on4)c(Cl)c3)c2cc1OC` this time 0.908

Same question, `O=C(Nc1cnn2ccc(N3CCC[C@@H]3c3cc(F)ccc3F)nc12)N1CC[C@H](O)C1` this time 1.08

Same question, `Cc1cc(Nc2ncnc3ccc(NC4=NC(C)(C)CO4)cc23)ccc1Oc1ccn2ncnc2c1` this time 1.05
